Test: ATG_NFI_CIS: Attagene CIS-FACTORIAL HepG2 Assay for human Nuclear Factor I (NFI) (AID 2282989)
Conditions: HepG2 cis-regulatory reporter, NFI response element transcription; actives raise or lower the signal
Protocol: ATG_CIS is a cell-based, multiplexed-readout assay that uses HepG2, a human liver cell line, with measurements taken at 24 hours after chemical dosing in a 24-well plate.ATG_NFI_CIS is one of 52 assay component(s) measured or calculated from the ATG_CIS assay. […] This assay endpoint, ATG_NFI_CIS, was analyzed with bidirectional fitting relative to DMSO as the negative control and baseline of activity. […]
Activity calls are given as the source filed them. How the source made its calls: active means hit-call score of the fitted dose curve at least 0.9, where 1 is the maximum; inactive means score below 0.9.
Choose the fitting class; nothing outside TRUE (active), FALSE (inactive) is accepted.

Some solved entries appear below for comparison.
> print(dat)
                                   compound  answerlabel
1  O=C(O)C(F)(F)C(F)(F)C(F)(F)C(F)(F)C(F)(F)C(F)(F)C(F)(F)C(F)(F)C(F)(F)C(F)(F)C(F)(F)C(F)(F)F        FALSE
2                                   CCCCCCS        FALSE
3  CC(CCl)OP(=O)(OC(C)CCl)OC(C)CCl (configuration not stated)        FALSE
4                      Nc1cc(Cl)c(N)c(Cl)c1        FALSE
5  CCCCCCCCC(F)(F)C(F)(F)C(F)(F)C(F)(F)C(F)(F)C(F)(F)F         TRUE

Query compound follows.
For `FC(F)(F)C(F)(F)C(F)(F)C(F)(F)C(F)(F)C(F)(F)CCS` , what call appears in the results of this test? FALSE
